# Test system: HaCat
# assay: Cytotoxic Profiling of Annotated Libraries Using Quantitative High-Throughput Screening (AID 1296008); note: % is set by controls: 0 for no effect and ±100 for the full control effect
# run_parameters: Five cell lines viability, CellTiter-Glo ATP luminescence, 48-72 h; stronger effect = lower value
Inconclusive results are not listed.
Entries whose max response is below -10% take label 1; entries at or above -10% take label 0.

{"molecule": "CC[C@H](C)[C@H](NC(=O)[C@H]1CCCCN1C)C(=O)N(COC(=O)CC(C)C)[C@H](C[C@@H](OC(C)=O)c1nc(C(=O)N[C@@H](Cc2ccc(O)cc2)C[C@H](C)C(=O)O)cs1)C(C)C", "system": "HaCat", "class": "label 1"}

INPUT: Lab note: confirm whether the reported max response for this molecule is below -10%, equality not counting. molecule: C[C@]12CC[C@H](OC3OC(CO)C(O)C(O)C3OC3OC(CO)C(O)C(O)C3O)C[C@@H]1CC[C@@H]1C2CC[C@]2(C)[C@@H](C3=CC(=O)OC3)CC[C@]12O (some centres not stated)
OUTPUT: label 0

INPUT: Lab note: confirm whether the reported max response for this molecule is below -10%, equality not counting. molecule: `NC(=O)[C@@H](CC1CC1)[C@@H](CCC(F)(F)F)C(=O)N[C@H]1N=C(c2ccccc2)c2cccc(F)c2NC1=O`
OUTPUT: label 1

INPUT: Lab note: confirm whether the reported max response for this molecule is below -10%, equality not counting. molecule: CCCCN1[C@@H]2CC[C@H]1CC(OC(c1ccc(F)cc1)c1ccc(F)cc1)C2 (some centres not stated)
OUTPUT: label 1

INPUT: Lab note: confirm whether the reported max response for this molecule is below -10%, equality not counting. molecule: `CCCN(CCC)CCc1ccc(OC)c(OCCc2ccccc2)c1`
OUTPUT: label 1

INPUT: Lab note: confirm whether the reported max response for this molecule is below -10%, equality not counting. molecule: `O=C(N[C@H]1CN2CCC1CC2)c1cc2cccc(Cl)c2s1`
OUTPUT: label 0
